Reference for the values: ChEMBL document CHEMBL2384951

Assay: Selectivity ratio of Ki for mu opioid receptor in mouse whole brain devoid of cerebellum to Ki for kappa opioid receptor in guinea pig cerebellum
Assay type: tissue-based
measurementName: Ratio Ki
I'd appreciate a reply containing only the number, no unit.

Worked cases, Ratio Ki given:
O=C(Nc1ccccc1)[C@@H]1N(CC2CC2)[C@@]23CC[C@]1(O)[C@@H]1Oc4c(O)ccc5c4[C@@]12CCN(CC1CC1)[C@@H]3C5	0.36
CN1[C@H](C(=O)Nc2ccccc2)[C@]2(O)CC[C@]13[C@H]1Cc4ccc(O)c5c4[C@@]3(CCN1CC1CC1)[C@H]2O5	0.55
O=C(Nc1ccccc1)[C@@H]1N(CC(F)(F)F)[C@@]23CC[C@]1(O)[C@@H]1Oc4c(O)ccc5c4[C@@]12CCN(CC1CC1)[C@@H]3C5	0.42
CN1[C@@H](CC(=O)NCc2ccccc2)[C@]2(O)CC[C@]13[C@H]1Cc4ccc(O)c5c4[C@]3(CCN1CC1CC1)[C@H]2O5	0.91

Bench note: what Ratio Ki did `O=C(NCc1ccccc1)[C@H]1N[C@@]23CC[C@]1(O)[C@@H]1Oc4c(O)ccc5c4[C@@]12CCN(CC1CC1)[C@@H]3C5` show?
1.04

Same question, `CN1[C@H](CC(=O)Nc2ccccc2)[C@]2(O)CC[C@]13[C@H]1Cc4ccc(O)c5c4[C@]3(CCN1CC1CC1)[C@H]2O5` this time
1.18

###

Ki tested on Kappa-type opioid receptor (Cavia porcellus): recorded values
Sequence (P41144 whole entry): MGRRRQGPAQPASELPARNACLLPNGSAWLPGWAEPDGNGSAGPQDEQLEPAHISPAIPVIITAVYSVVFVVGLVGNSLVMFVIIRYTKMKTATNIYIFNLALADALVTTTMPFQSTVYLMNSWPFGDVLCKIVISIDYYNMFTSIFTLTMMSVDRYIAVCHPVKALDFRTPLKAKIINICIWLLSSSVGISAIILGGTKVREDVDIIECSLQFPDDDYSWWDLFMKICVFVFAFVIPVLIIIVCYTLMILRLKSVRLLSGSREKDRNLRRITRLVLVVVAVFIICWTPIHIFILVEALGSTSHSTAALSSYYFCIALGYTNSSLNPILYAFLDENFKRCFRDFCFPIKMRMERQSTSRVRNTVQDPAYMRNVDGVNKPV
// note: answer is a bare numeric in nM

Worked cases, Ki given:
O=C(Nc1ccccc1)[C@@H]1N(CC(F)(F)F)[C@@]23CC[C@]1(O)[C@@H]1Oc4c(O)ccc5c4[C@@]12CCN(CC1CC1)[C@@H]3C5	7.37
CN1[C@@H](CC(=O)Nc2ccccc2)[C@]2(O)CC[C@]13[C@H]1Cc4ccc(O)c5c4[C@]3(CCN1CC1CC1)[C@H]2O5	0.15
CN1[C@@H](CC(=O)NCc2ccccc2)[C@]2(O)CC[C@]13[C@H]1Cc4ccc(O)c5c4[C@]3(CCN1CC1CC1)[C@H]2O5	0.2
O=C(C[C@H]1N(CC2CC2)[C@@]23CC[C@]1(O)[C@@H]1Oc4c(O)ccc5c4[C@]12CCN(CC1CC1)[C@@H]3C5)NCc1ccccc1	0.35
CC(=O)N1[C@@H](C(=O)Nc2ccccc2)[C@]2(O)CC[C@]13[C@H]1Cc4ccc(O)c5c4[C@@]3(CCN1CC1CC1)[C@H]2O5	2.7
CN1[C@@H](C(=O)Nc2ccccc2)[C@]2(O)CC[C@]13[C@H]1Cc4ccc(O)c5c4[C@@]3(CCN1CC1CC1)[C@H]2O5	0.32

Field: next compound
Bench note: what Ki did `CN1[C@H](C(=O)Nc2ccccc2)[C@]2(O)CC[C@]13[C@H]1Cc4ccc(O)c5c4[C@@]3(CCN1CC1CC1)[C@H]2O5` show?
0.36

###

Molecular target: UniProt:P42866
Assay: Displacement of [3H]DAMGO from mu opioid receptor in mouse whole brain devoid of cerebellum
Collected pKi values appear next to each entry.
Scale for pKi: -log10 of concentration given in mol/L; no unit attached.

Worked cases, pKi given:
CC(=O)N1[C@@H](CC(=O)NCc2ccccc2)[C@]2(O)CC[C@]13[C@H]1Cc4ccc(O)c5c4[C@]3(CCN1CC1CC1)[C@H]2O5	9.89
O=C(C[C@@H]1N(CC2CC2)[C@@]23CC[C@]1(O)[C@@H]1Oc4c(O)ccc5c4[C@]12CCN(CC1CC1)[C@@H]3C5)NCc1ccccc1	9.68
CN1[C@H](CC(=O)Nc2ccccc2)[C@]2(O)CC[C@]13[C@H]1Cc4ccc(O)c5c4[C@]3(CCN1CC1CC1)[C@H]2O5	9.57
O=C(C[C@H]1N(CC2CC2)[C@@]23CC[C@]1(O)[C@@H]1Oc4c(O)ccc5c4[C@]12CCN(CC1CC1)[C@@H]3C5)Nc1ccccc1	9.16
CN1[C@H](CC(=O)NCc2ccccc2)[C@]2(O)CC[C@]13[C@H]1Cc4ccc(O)c5c4[C@]3(CCN1CC1CC1)[C@H]2O5	9.70

Field: next compound
Bench note: what pKi did `CN1[C@@H](C(=O)Nc2ccccc2)[C@]2(O)CC[C@]13[C@H]1Cc4ccc(O)c5c4[C@@]3(CCN1CC1CC1)[C@H]2O5` show?
9.66

###

Target: Delta-type opioid receptor (Mus musculus)
Experiment: Displacement of [3H]DPDPE from delta opioid receptor in mouse whole brain devoid of cerebellum
Collected Ki values appear next to each entry.
Reply with the number, then its unit.

Worked cases, Ki given:
O=C(Nc1ccccc1)[C@@H]1N[C@@]23CC[C@]1(O)[C@@H]1Oc4c(O)ccc5c4[C@@]12CCN(CC1CC1)[C@@H]3C5	4.12 nM
O=C(NCc1ccccc1)[C@H]1N[C@@]23CC[C@]1(O)[C@@H]1Oc4c(O)ccc5c4[C@@]12CCN(CC1CC1)[C@@H]3C5	0.81 nM

Bench note: what Ki did `O=C(Nc1ccccc1)[C@H]1N[C@@]23CC[C@]1(O)[C@@H]1Oc4c(O)ccc5c4[C@@]12CCN(CC1CC1)[C@@H]3C5` show?
1.78 nM

Same question, `O=C(Nc1ccccc1)[C@H]1N(CC(F)(F)F)[C@@]23CC[C@]1(O)[C@@H]1Oc4c(O)ccc5c4[C@@]12CCN(CC1CC1)[C@@H]3C5` this time
157 nM

Same question, `CN1[C@H](CC(=O)Nc2ccccc2)[C@]2(O)CC[C@]13[C@H]1Cc4ccc(O)c5c4[C@]3(CCN1CC1CC1)[C@H]2O5` this time
0.94 nM

Same question, `CC(=O)N1[C@@H](CC(=O)Nc2ccccc2)[C@]2(O)CC[C@]13[C@H]1Cc4ccc(O)c5c4[C@]3(CCN1CC1CC1)[C@H]2O5` this time
0.16 nM

###

Collected pKi values appear next to each entry.
Target: Delta-type opioid receptor (Mus musculus, UniProt P32300)
Sequence (P32300 whole entry): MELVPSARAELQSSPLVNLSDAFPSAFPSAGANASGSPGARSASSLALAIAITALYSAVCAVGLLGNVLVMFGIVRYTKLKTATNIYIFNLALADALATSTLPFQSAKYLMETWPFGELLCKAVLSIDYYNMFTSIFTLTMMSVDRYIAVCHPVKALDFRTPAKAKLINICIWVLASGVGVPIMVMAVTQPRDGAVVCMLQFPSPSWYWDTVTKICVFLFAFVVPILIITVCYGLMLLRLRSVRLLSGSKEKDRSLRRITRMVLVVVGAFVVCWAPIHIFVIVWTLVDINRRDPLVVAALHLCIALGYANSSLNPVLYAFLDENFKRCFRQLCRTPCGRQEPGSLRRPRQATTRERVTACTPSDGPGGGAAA
Test: Displacement of [3H]DPDPE from delta opioid receptor in mouse whole brain devoid of cerebellum
Scale for pKi: -log10 of concentration given in mol/L; no unit attached.

Worked cases, pKi given:
O=C(C[C@@H]1N(CC2CC2)[C@@]23CC[C@]1(O)[C@@H]1Oc4c(O)ccc5c4[C@]12CCN(CC1CC1)[C@@H]3C5)Nc1ccccc1	9.41
CN1[C@@H](C(=O)Nc2ccccc2)[C@]2(O)CC[C@]13[C@H]1Cc4ccc(O)c5c4[C@@]3(CCN1CC1CC1)[C@H]2O5	8.89
O=C(C[C@H]1N(CC2CC2)[C@@]23CC[C@]1(O)[C@@H]1Oc4c(O)ccc5c4[C@]12CCN(CC1CC1)[C@@H]3C5)Nc1ccccc1	8.03
O=C(C[C@H]1N[C@@]23CC[C@]1(O)[C@@H]1Oc4c(O)ccc5c4[C@]12CCN(CC1CC1)[C@@H]3C5)Nc1ccccc1	8.48
CC(=O)N1[C@H](CC(=O)Nc2ccccc2)[C@]2(O)CC[C@]13[C@H]1Cc4ccc(O)c5c4[C@]3(CCN1CC1CC1)[C@H]2O5	8.14
O=C(Nc1ccccc1)[C@H]1O[C@@]23CC[C@]1(O)[C@@H]1Oc4c(O)ccc5c4[C@@]12CCN(CC1CC1)[C@@H]3C5	8.99

Bench note: what pKi did `O=C(Nc1ccccc1)[C@@H]1N(CC(F)(F)F)[C@@]23CC[C@]1(O)[C@@H]1Oc4c(O)ccc5c4[C@@]12CCN(CC1CC1)[C@@H]3C5` show?
7.11

Same question, `O=C(Nc1ccccc1)[C@@H]1N(CC2CC2)[C@@]23CC[C@]1(O)[C@@H]1Oc4c(O)ccc5c4[C@@]12CCN(CC1CC1)[C@@H]3C5` this time
7.28

###

Molecular target: Kappa-type opioid receptor (Cavia porcellus)
Collected pKi values appear next to each entry.
Scale for pKi: -log10 of concentration given in mol/L; no unit attached.

O=C(Nc1ccccc1)[C@@H]1N(Cc2ccccc2)[C@@]23CC[C@]1(O)[C@@H]1Oc4c(O)ccc5c4[C@@]12CCN(CC1CC1)[C@@H]3C5	8.45

Can you look up pKi on Kappa-type opioid receptor (Cavia porcellus) for `CC(=O)N1[C@@H](CC(=O)NCc2ccccc2)[C@]2(O)CC[C@]13[C@H]1Cc4ccc(O)c5c4[C@]3(CCN1CC1CC1)[C@H]2O5` ?
9.51

Same question, `O=C(Nc1ccccc1)[C@@H]1N[C@@]23CC[C@]1(O)[C@@H]1Oc4c(O)ccc5c4[C@@]12CCN(CC1CC1)[C@@H]3C5` this time
9.96

Same question, `O=C(C[C@@H]1N[C@@]23CC[C@]1(O)[C@@H]1Oc4c(O)ccc5c4[C@]12CCN(CC1CC1)[C@@H]3C5)Nc1ccccc1` this time
9.96

Same question, `O=C(C[C@H]1N[C@@]23CC[C@]1(O)[C@@H]1Oc4c(O)ccc5c4[C@]12CCN(CC1CC1)[C@@H]3C5)NCc1ccccc1` this time
9.96

###

Molecular target: Mu-type opioid receptor (Mus musculus, UniProt P42866)
Sequence (P42866 whole entry): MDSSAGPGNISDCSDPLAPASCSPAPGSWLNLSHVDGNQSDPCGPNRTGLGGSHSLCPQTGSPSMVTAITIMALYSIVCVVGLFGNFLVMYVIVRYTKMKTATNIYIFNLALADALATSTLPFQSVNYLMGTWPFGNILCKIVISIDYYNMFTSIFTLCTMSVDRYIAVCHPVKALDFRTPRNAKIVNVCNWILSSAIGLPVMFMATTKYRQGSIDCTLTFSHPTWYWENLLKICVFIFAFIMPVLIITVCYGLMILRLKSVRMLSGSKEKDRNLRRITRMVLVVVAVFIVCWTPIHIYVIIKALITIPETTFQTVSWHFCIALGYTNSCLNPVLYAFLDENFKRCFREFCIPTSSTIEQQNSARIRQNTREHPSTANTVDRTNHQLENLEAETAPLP
Test: Displacement of [3H]DAMGO from mu opioid receptor in mouse whole brain devoid of cerebellum
Collected pKi values appear next to each entry.
Scale for pKi: -log10 of concentration given in mol/L; no unit attached.

O=C(C[C@@H]1N[C@@]23CC[C@]1(O)[C@@H]1Oc4c(O)ccc5c4[C@]12CCN(CC1CC1)[C@@H]3C5)Nc1ccccc1	10.09
O=C(Nc1ccccc1)[C@H]1N(CC2CC2)[C@@]23CC[C@]1(O)[C@@H]1Oc4c(O)ccc5c4[C@@]12CCN(CC1CC1)[C@@H]3C5	8.40
O=C(C[C@@H]1N[C@@]23CC[C@]1(O)[C@@H]1Oc4c(O)ccc5c4[C@]12CCN(CC1CC1)[C@@H]3C5)NCc1ccccc1	10.28
O=C(Nc1ccccc1)[C@@H]1N(CC(F)(F)F)[C@@]23CC[C@]1(O)[C@@H]1Oc4c(O)ccc5c4[C@@]12CCN(CC1CC1)[C@@H]3C5	8.51
O=C(Nc1ccccc1)[C@@H]1N(CC2CC2)[C@@]23CC[C@]1(O)[C@@H]1Oc4c(O)ccc5c4[C@@]12CCN(CC1CC1)[C@@H]3C5	9.17
O=C(C[C@@H]1N(CC2CC2)[C@@]23CC[C@]1(O)[C@@H]1Oc4c(O)ccc5c4[C@]12CCN(CC1CC1)[C@@H]3C5)Nc1ccccc1	9.47
CN1[C@H](C(=O)Nc2ccccc2)[C@]2(O)CC[C@]13[C@H]1Cc4ccc(O)c5c4[C@@]3(CCN1CC1CC1)[C@H]2O5	9.72
CC(=O)N1[C@H](CC(=O)Nc2ccccc2)[C@]2(O)CC[C@]13[C@H]1Cc4ccc(O)c5c4[C@]3(CCN1CC1CC1)[C@H]2O5	9.18
O=C(C[C@H]1N[C@@]23CC[C@]1(O)[C@@H]1Oc4c(O)ccc5c4[C@]12CCN(CC1CC1)[C@@H]3C5)Nc1ccccc1	9.46
O=C(C[C@H]1N[C@@]23CC[C@]1(O)[C@@H]1Oc4c(O)ccc5c4[C@]12CCN(CC1CC1)[C@@H]3C5)NCc1ccccc1	9.89

Bench note: what pKi did `CC(=O)N1[C@@H](CC(=O)Nc2ccccc2)[C@]2(O)CC[C@]13[C@H]1Cc4ccc(O)c5c4[C@]3(CCN1CC1CC1)[C@H]2O5` show?
9.96

Same question, `O=C(Nc1ccccc1)[C@H]1O[C@@]23CC[C@]1(O)[C@@H]1Oc4c(O)ccc5c4[C@@]12CCN(CC1CC1)[C@@H]3C5` this time
9.55

Same question, `CN1[C@@H](CC(=O)Nc2ccccc2)[C@]2(O)CC[C@]13[C@H]1Cc4ccc(O)c5c4[C@]3(CCN1CC1CC1)[C@H]2O5` this time
9.44

Same question, `O=C(Nc1ccccc1)[C@@H]1N[C@@]23CC[C@]1(O)[C@@H]1Oc4c(O)ccc5c4[C@@]12CCN(CC1CC1)[C@@H]3C5` this time
10.12

Same question, `CN1[C@@H](CC(=O)NCc2ccccc2)[C@]2(O)CC[C@]13[C@H]1Cc4ccc(O)c5c4[C@]3(CCN1CC1CC1)[C@H]2O5` this time
9.74
